assay: Binding affinity against imipramine receptor was determined in homogenized rat cortex tissue using [3H]-imipramine as radioligand

>  <molecule>
CN(C)CCC(=O)N1c2ccccc2CCc2ccccc21

>  <qualifier>
=

>  <Ki [µM]>
0.4

$$$$
>  <molecule>
CN(C)CCCN1c2ccccc2C(=O)Nc2cccnc21

>  <qualifier>
=

>  <Ki [µM]>
15

$$$$
>  <molecule>
CN(C)CCCN1c2ccccc2CCc2ccccc21

>  <qualifier>
=

>  <Ki [µM]>
0.012

$$$$
>  <molecule>
CN(C)CCC(=O)N1c2ccccc2NC(=O)c2ccccc21

>  <qualifier>
>

>  <Ki [µM]>
100

$$$$
>  <molecule>
CN1CCN(CC(=O)N2c3ccccc3NC(=O)c3ccccc32)CC1

>  <qualifier>
>

>  <Ki [µM]>
100

$$$$
>  <molecule>
CN1CCN(CC(=O)N2c3ccccc3C(=O)Nc3cccnc32)CC1 [PIRENZEPINE]

>  <qualifier>
>

>  <Ki [µM]>
100

$$$$
>  <molecule>
CN1CCN(CC(=O)N2c3ccccc3CCc3ccccc32)CC1

>  <qualifier>
>

>  <Ki [µM]>
100

$$$$
>  <molecule>
CN(C)CCC(=O)N1c2ccccc2C(=O)Nc2cccnc21

>  <qualifier>
>

>  <Ki [µM]>
100

$$$$
>  <molecule>
CN(C)CCCN1c2ccccc2NC(=O)c2ccccc21

>  <qualifier>
=

>  <Ki [µM]>
4

$$$$
